Hello, the source for this data is patent US20240376120A1, in case you need it.

Reported log10 of IC50 values follow for various compounds
- Tested on: MDA-MB-435s cells (human melanoma cells)
- experimentSummary: MDA-MB-435s cell proliferation inhibitory assay (CellTiter-Glo)
- Type: cell-based
- cond: Homo sapiens, MDA-MB-435S, 72 h, read-out: Proliferation inhibition IC50
Recall that a logarithmic scale is used here: each number is log10 of IC50 in nM.

CC[C@@]1(O)C(=O)OCc2c1cc1n(c2=O)Cc2c-1nc1ccc(O)cc1c2C(C)O (stereo partly shown) [Example 12]    1.77

Any idea what log10 of IC50 came out for CC[C@@]1(O)C(=O)OCc2c1cc1n(c2=O)Cc2c-1nc1cc(F)c(C)c(C)c1c2[C@@H](C)N [Example 29b] on MDA-MB-435s cells (human melanoma cells)?
-0.14

Consider next the compound CC[C@@]1(O)C(=O)OCc2c1cc1n(c2=O)Cc2c-1nc1cc(F)c(C)cc1c2[C@H](C)N1CCN(C)CC1 [Example 42a] in the same way.
0.51

Param item: CC[C@@]1(O)C(=O)OCc2c1cc1n(c2=O)Cc2c-1nc1ccc(O)cc1c2[C@H](C)N [Example 6]
1.57

Next compound up: CC[C@@]1(O)C(=O)OCc2c1cc1n(c2=O)Cc2c-1nc1ccc(OC)cc1c2[C@H](C)O [Example 31c]
0.76

Same thing, different compound: CC[C@@]1(O)C(=O)OCc2c1cc1n(c2=O)Cc2c-1nc1cc(F)c(C)c3c1c2[C@@H](N)CC3 [Compound B, Exatecan, reference compound]
0.40

Thanks! And CC[C@@]1(O)C(=O)OCc2c1cc1n(c2=O)Cc2c-1nc1cc(F)c(C)cc1c2C1CNC1 [Example 37] ?
0.37

----------
The entries below come with measured IC50 values attached.
- Test system: MDA-MB-435s cells (human melanoma cells)
- experimentSummary: MDA-MB-435s cell proliferation inhibitory assay (CellTiter-Glo)
- Type: cell-based
- cond: Homo sapiens, MDA-MB-435S, 72 h, read-out: Proliferation inhibition IC50
- Method: • 1). […] Resuspend an appropriate amount of cell suspension to 3000 cells/100 μL according to the count, mixed well and then put the corresponding number of cells into a 96-well plate by pipette. • 3). […] Day 1 detected: Take out an appropriate amount of CTG 1 h in advance and the plate was allowed to equilibrate at room temperature for 30 min. 100 μL of CTG was added to each well and shaken for 5 mins, and then standed in the dark for 5 mins, the luminescence value was detected by ELISA. • 6). […]
The figure you give is taken to be in nM; do not add the unit.

Completed entries (count: 4):
CC[C@@]1(O)C(=O)OCc2c1cc1n(c2=O)Cc2c-1nc1cc(F)c(C)cc1c2[C@@H]1CCN1 [Example 38a]    1.12
CC[C@@]1(O)C(=O)OCc2c1cc1n(c2=O)Cc2c-1nc1cc3c(cc1c2[C@@H](C)N)OCCO3 [Example 36b]    3.15
CC[C@@]1(O)C(=O)OCc2c1cc1n(c2=O)Cc2c-1nc1cc(F)c(C)cc1c2[C@H](C)NC(=O)[C@H](O)C(F)(F)F    10.3
CC[C@@]1(O)C(=O)OCc2c1cc1n(c2=O)Cc2c-1nc1cc(F)c(C)cc1c2[C@@H](C)NC(C)=O    5.8

Please give the measured IC50 for this compound: CC[C@@]1(O)C(=O)OCc2c1cc1n(c2=O)Cc2c-1nc1cc(F)c(C)cc1c2[C@@H](C)O [Example 12d]
1.6

Also, CC[C@@]1(O)C(=O)OCc2c1cc1n(c2=O)Cc2c-1nc1cc(F)c(C)cc1c2[C@H](C)NC(=O)[C@H](C)O please.
3.8

What do we get for CC[C@@]1(O)C(=O)OCc2c1cc1n(c2=O)Cc2c-1nc1cc(F)c(C)cc1c2[C@H](C)N(C)C ?
5.6
